Data origin, for the record: paper PMC8742467

Reported H1.4: K25ME1, % of peptide pool values for a set of compounds
- Tested on: histone modifications in 2102EP cells
- MEASUREMENT_DESCRIPTION: Mass spectrometry analysis of histone modifications (Mod Spec)
- Type: cell-based, Human
- EXPERIMENTAL_CONTEXT: 2102EP cells; Mod Spec raw data
- Experimental: 2102EP cells were treated with the EC50 concentrations for Quisinostat, JIB-04, Chaetocin, MZ-1, LP99, PRT4165, GSK343 and DMSO as solvent control. The cells were harvested via trypsinization after 16 h. The mass spectrometric analysis of histone modifications was outsourced to the Mod Spec service by Active Motif (Carlsbad, CA, USA). Histone extraction and mass spectrometric analysis was performed as described previously. Raw data were transformed into z-scores as the input. […]
Write it as a number; the unit % goes unstated.

O=C1C(=Cc2cccnc2)C(=O)c2ccccc21 ... 2.298
Cc1cc(=O)n(C)c2cc(N3C(=O)CC[C@H](NS(=O)(=O)CC(C)C)[C@H]3c3ccc(Cl)cc3)ccc12 ... 2.269
Clc1ccc(N/N=C(\c2ccccc2)c2ccccn2)nc1 ... 2.18

Give the measured H1.4: K25ME1, % of peptide pool for `Cn1cc(CNCC2CCN(c3ncc(C(=O)NO)cn3)CC2)c2ccccc21` 1.754
